Values compiled from patent US20210324080A1.

Biological target: T1, monkey CTLA-4, full length, on transfected HEK293 cells (monkey)
T1 construct: whole, on cells; also called cCTLA-4; HEK293-cCTLA-4
Assay: FACS, 293F-cCTLA-4 cells
property measured: MFI at 8 nM
// no unit, no text: just the number

92C8B6 (chimeric antibody purified from hybridoma supernatant) (antibody, V domains shown, also called mAb42; mAb042) VH: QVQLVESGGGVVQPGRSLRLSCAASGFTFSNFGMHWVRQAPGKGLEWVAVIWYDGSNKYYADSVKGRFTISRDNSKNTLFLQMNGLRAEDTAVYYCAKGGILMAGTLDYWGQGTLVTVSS VL: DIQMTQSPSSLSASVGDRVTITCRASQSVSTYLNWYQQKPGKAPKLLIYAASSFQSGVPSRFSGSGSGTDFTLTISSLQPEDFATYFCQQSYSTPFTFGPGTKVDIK = 722
31C12F3 (chimeric antibody purified from hybridoma supernatant) (antibody, V domains shown, also called mAb010) VH: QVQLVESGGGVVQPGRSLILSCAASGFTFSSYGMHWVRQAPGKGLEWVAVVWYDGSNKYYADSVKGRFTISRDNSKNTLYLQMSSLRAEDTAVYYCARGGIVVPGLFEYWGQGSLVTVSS VL: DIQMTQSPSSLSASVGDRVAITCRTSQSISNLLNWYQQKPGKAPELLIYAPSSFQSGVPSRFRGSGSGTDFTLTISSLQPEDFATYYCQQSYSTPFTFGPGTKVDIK = 654
97A8D1 (chimeric antibody purified from hybridoma supernatant) (antibody, V domains shown, also called mAb49; mAb049) VH: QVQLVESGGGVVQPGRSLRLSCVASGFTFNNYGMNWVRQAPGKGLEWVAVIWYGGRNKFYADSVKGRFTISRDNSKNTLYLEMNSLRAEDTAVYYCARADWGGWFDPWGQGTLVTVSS VL: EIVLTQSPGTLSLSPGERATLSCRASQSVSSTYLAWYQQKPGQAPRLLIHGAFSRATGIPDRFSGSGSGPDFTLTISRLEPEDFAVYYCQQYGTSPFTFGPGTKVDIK = 754

Let us move to another entry and its MFI at 8 nM.
Indicate the recorded MFI at 8 nM value for this binder: 40C4C6 (chimeric antibody purified from hybridoma supernatant) (antibody, V domains shown, also called mAb09; mAb009) VH: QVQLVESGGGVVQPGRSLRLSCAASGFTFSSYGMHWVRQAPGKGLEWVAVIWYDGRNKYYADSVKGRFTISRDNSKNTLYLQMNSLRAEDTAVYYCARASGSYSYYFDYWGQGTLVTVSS VL: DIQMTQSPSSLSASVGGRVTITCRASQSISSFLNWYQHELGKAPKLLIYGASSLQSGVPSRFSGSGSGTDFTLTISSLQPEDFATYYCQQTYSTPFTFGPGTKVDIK
619
